tested on: Hs-578T; test: NCI tumour cell line growth inhibition, 48 h
The source made the active and inactive calls. No stated cut-off is given here; in the data, active = GI50 up to about 1.1 µM and inactive = higher.
# GI50 per entry
Measured Property: GI50

CC(=O)O[C@@H]1[C@@H](O)C2=C3[C@]4(C)[C@@H]1C(C)(C)C(=O)C[C@@H]4[C@]3(O)[C@H](OC(C)=O)[C@@]1(C[C@@H]1C)C2=O    41.2 µM (inactive)
OC(c1cc(-c2ccc(Cl)cc2)nc2ccccc12)C1CCCCN1 (stereo not given)    1.99 µM (inactive)
C[C@H]1O[C@@H](c2c(O)ccc3ccccc23)C[C@@H](N(C)C)C1O (stereo not given in full)    80.4 µM (inactive)
Cc1ccc(S(=O)(=O)N2c3ccccc3[C@H]3CCC=C[C@H]32)cc1    15.4 µM (inactive)
CN1N=C(c2ccncc2)OC1c1cccc(C(F)(F)F)c1 (stereo not given)    > 100 µM (inactive)

----------
Here the recorded GI50 is given for each entry.
system: KM12; assay: NCI tumour cell line growth inhibition, 48 h
Active and inactive are the calls of the source. Cut-off read from the data, not from the text of the source: active = GI50 up to about 1.1 µM and inactive = higher.
Measured Property: GI50

CCCCCCCCCCCCOc1ccc(/C=C/C2=[N+](CCCl)CCO2)cc1    38 µM (inactive)
CN(C)[C@@H]1C(O)=C(C(=O)NCN2CCN(C(=N)NC(=N)N)CC2)C(=O)[C@@]2(O)C(O)=C3C(=O)c4c(O)cccc4[C@@](C)(O)[C@H]3C[C@@H]12    0.368 µM (active)
COc1ccc(-n2cnc3c(NC(CCSC)C(=O)O)ncnc32)cc1 (centres undefined)    > 100 µM (inactive)
CC(C)CC1C(=O)OC(C)(C)OC1=O    > 100 µM (inactive)
Oc1c(/N=N\c2ccccc2)c2cccc3ccc4cccc1c4c32    > 100 µM (inactive)
C=CCSC1=N/C(=C\c2ccc(OC)cc2)C(=O)N1CC=C    21.9 µM (inactive)
COC(=O)[C@H](Cc1ccccc1)NC(=O)NCCN(CCNC(=O)N[C@@H](Cc1ccccc1)C(=O)OC)C(=O)N[C@@H](Cc1ccccc1)C(=O)OC    20.9 µM (inactive)
COc1ccc(-c2c3ccccc3c(-c3ccc(OCCCCCBr)cc3)c3ccccc23)cc1    > 100 µM (inactive)
CCC(=O)Nc1ccc(N2C(=O)C(Cl)C2c2ccc(SC)cc2)cc1 (centres undefined)    > 100 µM (inactive)
COc1ccc(Cc2nc3cc([N+](=O)[O-])ccc3n2C[C@@H]2CCCN3CCCCC23)cc1 (some centres undefined)    16.3 µM (inactive)
CCOC(=O)c1c(NNc2ccccc2)nc2ccccc2c1-c1ccccc1    31.4 µM (inactive)
Nc1nc(-c2ccccc2)nc2oc(-c3cccs3)nc12    > 100 µM (inactive)
O=C(OCC(OC(=O)c1ccccc1)C(OC(=O)c1ccccc1)C(OC(=O)c1ccccc1)c1cnn(-c2ccccc2)n1)c1ccccc1 (centres undefined)    > 100 µM (inactive)
O=C(O)CCCOc1cc(-c2ccccc2F)nc2cc3c(cc12)OCO3    4.19 µM (inactive)
NS(=O)(=O)c1ccc(NNc2c3ccccc3nc3ccccc23)cc1    11.6 µM (inactive)
O=C1CC(c2ccccc2Cl)C2(C(=O)NC(=O)NC2=O)C(c2ccccc2Cl)C1 (centres undefined)    > 100 µM (inactive)
CC(=O)O[C@@H]1[C@@H](O)C2=C3[C@]4(C)[C@@H]1C(C)(C)C(=O)C[C@@H]4[C@]3(O)[C@H](OC(C)=O)[C@@]1(C[C@@H]1C)C2=O    16.6 µM (inactive)
CC(=O)Oc1ccc(-c2nnc(-c3ccc(OC(C)=O)cc3)nn2)cc1    > 100 µM (inactive)
O=C(O)C/C(=C\c1ccco1)C(=O)O    > 100 µM (inactive)

----------
system: U-251; assay: NCI tumour cell line growth inhibition, 48 h
The source made the active and inactive calls. No stated cut-off is given here; in the data, active = GI50 up to about 1.1 µM and inactive = higher.
Outcomes: 1.0 for active, 0.0 for inactive

O=C1Nc2ccccc2S/C1=C\c1ccc(C(F)(F)F)cc1    0.0
O=C1CN=C(c2ccccc2)c2ccncc2N1    0.0
CCC1(C)C=Cc2c(cc(O)c3c(=O)c4ccccc4n(C)c23)O1 (stereo not given)    0.0
O=C1C=CC(S(=O)(=O)C2=C/C(=C/Nc3ccc(Cl)cc3)C(=O)C=C2)=C/C1=C/Nc1ccc(Cl)cc1    0.0
CC(=O)OC1C2CCC1C1C2N=NN1c1ccc([N+](=O)[O-])cc1 (stereo not given)    0.0
O=C1c2ccccc2NC(=S)[C@@H]2CCCN12    0.0
O=C(O)Cn1cc([N+](=O)[O-])c(=O)c2ccccc21    0.0
CN(c1ccccc1)c1nc(=[N+]2CCCC2)ss1.[O-][Cl+3]([O-])([O-])[O-]    0.0
CC12OC3CC(O1)C1(C=O)C4CCC5(C)C(c6ccc(=O)oc6)CCC5(O)C4CCC1(C3)O2 (stereo not given)    1.0
N/N=c1\[nH]c2ccccc2o1    0.0
N#CC1=C(c2ccccc2)NNC(c2ccc(Cl)cc2)CC1=O (stereo not given)    0.0
Cn1c(=O)c2c(nc3n(Cc4ccccc4)c(=O)c(NCCBr)cn23)n(C)c1=O    0.0
C=C(C)[C@@H]1CC[C@@H](C)[C@](O)([C@@H]2C[C@@H]([C@H](COC(=O)c3ccccc3)OC(=O)c3ccccc3)OC2=O)C1    0.0
C[n+]1c2ccccc2c(C(=O)Nc2ccc(S(=O)(=O)Nc3ncccn3)cc2)c2ccccc21    0.0
Cc1ccc(S(=O)(=O)c2scc(-c3ccccc3)c2C)cc1    0.0
CCCCCCNC(=O)c1cnc(Cl)cn1    0.0
O=C1CC(c2ccccc2Cl)C2(C(=O)NC(=O)NC2=O)C(c2ccccc2Cl)C1 (stereo not given)    0.0
C/C1=C\[C@H](C)C[C@H](C)OC(=O)C[C@H](c2ccc(O)cc2)NC(=O)[C@H](Cc2ccc(O)c(Br)c2)N(C)C(=O)[C@H](C)NC(=O)[C@@H](C)C1    0.0
FC(F)(F)c1ccc2c(-c3cc[nH]c3)ccnc2c1    0.0
CN(/N=C/c1cccs1)c1ccc(Cl)cc1[N+](=O)[O-]    0.0
c1ccc2c(c1)[nH]c1c2ncc2[nH]c3ccccc3c21    0.0
Oc1ccc(/C=C/c2cccc(/C=C/c3ccc(O)c(O)c3)n2)cc1O    0.0
CCCCCCCCCOCC(COP(=O)([O-])OCC[N+](C)(C)C)OC (stereo not given)    0.0
COc1ccc(Nc2cc(O)nc(O)n2)cc1    0.0
Cc1n[n+](CC(=O)c2ccccc2)c2sc(N)nn12    0.0

----------
tested on: NCI-H23; assay: NCI tumour cell line growth inhibition, 48 h
Activity calls are given as the source filed them. Rule as the data show it: active = GI50 up to about 1.1 µM and inactive = higher.
Measured Property: GI50

CC(=O)CC(=O)ON(C)C(=O)Cc1ccccc1    > 100 µM (inactive)
CO/N=C1/c2sccc2[C@H](NC(=O)C(F)(F)F)[C@@H]1O    > 100 µM (inactive)
CCOC(=O)C=C1CCC2(CC1)OCCO2    > 100 µM (inactive)
O=S1(=O)C[C@@H](O)[C@H](O)CS1    > 100 µM (inactive)
CC(=O)Oc1cc(Cl)c(OC(C)=O)c2c(OC(C)=O)c(C)c(O[Si](C)(C)C(C)(C)C)cc12    4.18 µM (inactive)
O=C(O)CSc1ccc(N=C=S)cc1    78.9 µM (inactive)

----------
compounds and their reported GI50
system: TK-10; assay: NCI tumour cell line growth inhibition, 48 h
Active and inactive are the calls of the source. Rule as the data show it: active = GI50 up to about 1.1 µM and inactive = higher.
Measured Property: GI50

N#C/N=C(/N)NCc1ccccc1    > 100 µM (inactive)
Cc1ccc(-c2c(C#N)c(-c3ccc([N+](=O)[O-])cc3)c(C#N)c(=O)n2NS(=O)(=O)c2ccc(C)cc2)cc1    51.3 µM (inactive)
CNNC1=NS(=O)(=O)c2cc(C(=O)OC)c(Cl)cc2S1    > 10 µM (inactive)
COC(=O)C1=C(C)NC(C)=C(C(=O)OC)C1c1ccc(/[N+]([O-])=C/c2ccccc2)cc1    92.9 µM (inactive)
Cn1c2c(c3ccccc31)CCN1OCC=C[C@@H](C(=O)O)[C@@H]21    > 100 µM (inactive)

----------
test system: HOP-62; test: NCI tumour cell line growth inhibition, 48 h
Activity calls are given as the source filed them. No stated cut-off is given here; in the data, active = GI50 up to about 1.1 µM and inactive = higher.
GI50 values, listed per item
Measured Property: GI50

O=C1C(Cl)C(c2cc(Br)ccc2O)N1n1cnc2ccccc2c1=O (stereo unspecified)    13.7 µM (inactive)
NCCC(=O)NC(Cc1c[nH]cn1)C(=O)O (stereo unspecified)    > 100 µM (inactive)
CS(=O)(=O)OCCN1CCC2(CC1)SSC1(CCN(CCOS(C)(=O)=O)CC1)S2    > 100 µM (inactive)
Nc1cc[nH]c(=O)n1    > 100 µM (inactive)
C=C1C(=O)OC2CC1C(O)C/C(C)=C/CC/C(C)=C/C(O)CC2C (stereo unspecified)    11.4 µM (inactive)
CC(=O)Oc1ccc(-c2nnc(-c3ccc(OC(C)=O)cc3)nn2)cc1    > 100 µM (inactive)
